test system: SARS-CoV-2; experiment: Antiviral activity against SARS-CoV-2 (USA-WA1/2020 strain) measured by imaging in HRCE cells at MOI 0.4 after 96 hrs (reported as hit score from 0-1 for on-disease vs off-disease activity: scores >0.6 considered hits); type: functional, Homo sapiens
Whole data set: some 1,600 compounds, median “Hit score” near 0.13, cut for the highest 2% near 0.46. The full list was thinned out, with the highest values kept by preference.
Could you please classify the records by Hit score using these ranges: class 0 (below 0.1), class 1 (0.1 to below 0.3), class 2 (0.3 or more)

Sort COc1ccc2c(c1)c(CC(=O)OCC(C(=O)O)c1ccccc1)c(C)n2C(=O)c1ccc(Cl)cc1 (configuration not stated) into one of the categories. class 0

Sort CC[C@H]1[C@@H](O)[C@@H]2[C@H](CC[C@]3(C)[C@@H]([C@H](C)CCC(=O)O)CC[C@@H]23)[C@@]2(C)CC[C@@H](O)C[C@@H]12 into one of the categories. class 2

Sort CC(C)(C)NCC(O)COc1cc(Cl)ccc1Cl (configuration not stated) into one of the categories. class 2

Sort CC(C)(C)NCC(O)c1cc(Cl)c(N)c(Cl)c1 (configuration not stated) into one of the categories. class 0

Sort CC(C)(C)NCC(O)c1ccccc1Cl (configuration not stated) into one of the categories. class 0

Sort C=C1/C(=C\C=C2/CCC[C@]3(C)[C@@H]([C@H](C)CC[C@@H](O)C(C)C)CC[C@@H]23)C[C@@H](O)C[C@@H]1O into one of the categories. class 2

Sort CO/N=C(\C(=O)N[C@@H]1C(=O)N2C(C(=O)OCOC(=O)C(C)(C)C)=C(C)CS[C@H]12)c1csc(N)n1 into one of the categories. class 1

Sort Cc1ccc(Cl)c(OCC(O)CNC(C)(C)C)c1 (configuration not stated) into one of the categories. class 2

Sort CC(=O)c1c(C)c2cnc(Nc3ccc(N4CCNCC4)cn3)nc2n(C2CCCC2)c1=O into one of the categories. class 0

Sort C[N+]1(CC2CC2)[C@@H]2C[C@@H](OC(=O)[C@H](CO)c3ccccc3)C[C@H]1[C@@H]1O[C@@H]12 (some centres not stated) into one of the categories. class 0

Sort C[C@H](Nc1ncnc2nc[nH]c12)c1cc2cccc(Cl)c2c(=O)n1-c1ccccc1 into one of the categories. class 2

Sort CCCCCCOC(=O)CCC(=O)CN [HEXAMINOLEVULINATE] into one of the categories. class 1

Sort CC(C)(C)NCC(O)COc1cccc2c1CCC(=O)N2 (configuration not stated) into one of the categories. class 1

Sort O=C1[C@H]2CCCC[C@H]2C(=O)N1CCCCN1CCN(c2nsc3ccccc23)CC1 into one of the categories. class 1

Sort CN1CC(=O)N2[C@H](c3ccc4c(c3)OCO4)c3[nH]c4ccccc4c3C[C@@H]2C1=O into one of the categories. class 1

Sort CC(C)(C)NC[C@H](O)COc1nsnc1N1CCOCC1 into one of the categories. class 1

Sort CC[C@H](Nc1ncnc2[nH]cnc12)c1nc2cccc(F)c2c(=O)n1-c1ccccc1 into one of the categories. class 2

Sort CC[C@@H](CO)NC(=O)[C@@H]1C=C2c3cccc4[nH]cc(c34)C[C@H]2N(C)C1 into one of the categories. class 1

Sort C=C1CC[C@H](O)C/C1=C/C=C1\CCC[C@]2(C)[C@@H]([C@H](C)CCCC(C)C)CC[C@@H]12 into one of the categories. class 1

Sort CO[C@H]1C[C@@H]2CC[C@@H](C)[C@@](O)(O2)C(=O)C(=O)N2CCCC[C@H]2C(=O)O[C@H]([C@H](C)C[C@@H]2CC[C@@H](OC(=O)C(C)(CO)CO)[C@H](OC)C2)CC(=O)[C@H](C)/C=C(\C)[C@@H](O)[C@@H](OC)C(=O)[C@H](C)C[C@H](C)/C=C/C=C/C=C/1C into one of the categories. class 2

Sort O=C(Nc1c(Cl)cncc1Cl)c1ccc(OC(F)F)c(OCC2CC2)c1 into one of the categories. class 1

###

test system: SARS-CoV-2; assay: Antiviral activity against SARS-CoV-2 (USA-WA1/2020 strain) measured by imaging in HRCE cells at MOI 0.4 after 96 hrs (reported as hit score from 0-1 for on-disease vs off-disease activity: scores >0.6 considered hits); assay type: functional, Homo sapiens
Over roughly 1,600 compounds, “Hit score” has its median near 0.13; the highest 2% begin near 0.46. Shown is part of a subset that was picked to be rich in the highest values.
Property name: Hit score
Give the figure only, with no unit attached.

For the compound Cc1cccc(C)c1NC(=O)CN1CCN(CCCC(c2ccc(F)cc2)c2ccc(F)cc2)CC1 , the measured Hit score on SARS-CoV-2 was 0.2006

For the compound C=CCOc1ccccc1OCC(O)CNC(C)C (stereo not drawn) , the measured Hit score on SARS-CoV-2 was 0.08363

For the compound COc1ccc(CCNCC(O)COc2cccc(C)c2)cc1OC (stereo not drawn) , the measured Hit score on SARS-CoV-2 was 0.3675
